tested on: P(40), P(80), S(80) cell fractions of Methylosinus sp. (CRL-15, NRRL B-11,202); experiment: Oxidation of n-alkanes and n-alkenes by cell fractions; assay type: biochemical; conditions: P(40) fraction; inhibitor 10^-3 M; uninhibited rate 4.1
Reported % Inhibition, Propylene-Epoxidizing Activity values are given for each entry in this list.
ATTRIBUTE_MEASURED: % Inhibition, Propylene-Epoxidizing Activity (%)

MOLECULE	DATA_VALUE
Oc1cccc2cccnc12 [8-Hydroxyquinoline, reference compound]	75
NNC(N)=S [Thiosemicarbazide, reference compound]	97
c1cnc2c(c1)ccc1cccnc12 [1,10-phenanthroline, reference compound]	93
NC(N)=S [Thiourea, reference compound]	98
c1ccc(-c2ccccn2)nc1 [α,α-Bipyridyl, reference compound]	98

Taken from patent US4368267A.
